Below are compounds with their pKi as measured on FKBP12 (Homo sapiens (Human), UniProt P62942).
Sequence (P62942 whole entry, species assumed): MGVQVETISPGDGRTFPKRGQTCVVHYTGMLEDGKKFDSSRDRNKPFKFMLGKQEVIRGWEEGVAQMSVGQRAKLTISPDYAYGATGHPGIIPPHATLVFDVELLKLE
pKi: −log10 of the molar value.
attributeMeasured: pKi

[
  {
    "compound": "C\\C1=C/C=C/C=C/[C@@H](C)C[C@@H](C)C(=O)C2CCC(CC2)OC(=O)[C@@H]2CCCCN2C(=O)C(=O)[C@]2(O)O[C@@H](CC[C@H]2C)C[C@@H]1O",
    "systemTested": "FKBP12 (Homo sapiens (Human), UniProt P62942)",
    "observed": 6.34
  },
  {
    "compound": "CO[C@H]1C[C@@H]2CC[C@@H](C)[C@@](O)(O2)C(=O)C(=O)N2CCCC[C@H]2C(=O)OC([C@H](C)Cc2ccncc2)C/C=C(\\C)[C@@H](O)CC(=O)[C@H](C)C[C@H](C)/C=C/C=C/C=C/1C (stereo partly shown)",
    "systemTested": "FKBP12 (Homo sapiens (Human), UniProt P62942)",
    "observed": 7.89
  }
]

A. CO[C@H]1C[C@@H]2CC[C@@H](C)[C@@](O)(O2)C(=O)C(=O)N2CCCC[C@H]2C(=O)O[C@H]([C@H](C)C[C@H]2CC[C@H](O)CC2)C/C=C(\C)[C@@H](O)[C@@H](O)C(=O)[C@H](C)C[C@H](C)/C=C/C=C/C=C/1C
B. CO[C@H]1C[C@@H]2CC[C@@H](C)[C@@](O)(O2)C(=O)C(=O)N2CCCC[C@H]2C(=O)OC([C@H](C)C[C@H]2CC[C@H](O)CC2)C/C=C(\C)[C@@H](O)CC(=O)[C@H](C)C[C@H](C)/C=C/C=C/C=C/1C (stereo partly shown)
In: API: POST /compare with A and B ; response names the item with higher pKi. Please identify the chosen entry by its label.
Out: B
(B: 8.10, A: 7.74)
